meta.source: patent US20230331674A1

measurement-protocol: Plasma stability
Format: in vitro ADME
condition: human, 37° C., 2 h incubation, read-out: In vitro half-life in human plasma
readout-label: half-life at 1 μM

Return reported half-life at 1 μM; argument: COCCN(CC1CCCN(Cc2ccccc2)C1)S(=O)(=O)c1ccc2ccccc2c1 (racemic)
> 2 h

* * *

measurement-protocol: In vitro permeability assay with Caco2 cells
condition: human, Caco-2
readout-label: Papp B→A at 120 min, 100 μM (×10⁻⁶ cm/s)
Give a bare numeral; the unit ×10⁻⁶ cm/s is implied.

Return reported Papp B→A at 120 min, 100 μM; argument: COCCN(CC1CCCN(Cc2ccccc2)C1)S(=O)(=O)c1ccc2ccccc2c1 (racemic)
29.1

* * *

measurement-protocol: Metabolic stability in cryopreserved hepatocytes
Assay type: in vitro ADME
condition: both sexes, pH 7.3, human hepatocytes, 0.7 million viable cells per mL, read-out: In vitro half-life in cryopreserved hepatocytes
Method: Cryopreserved hepatocytes (mixed gender and pool of 10 or more) were thawed, washed, and resuspended in Krebs-Heinslet buffer (pH 7.3). […] The reaction was stopped by adding acetonitrile into the incubation mixture. […] Propranolol is relatively stable, whereas flurazepam, naloxone and 7-hydroxy-4-trifluoromethylcoumarin (HFC) are readily metabolized in human hepatocytes. In the HPLC-MS/MS analysis peak areas corresponding to the test compounds were recorded. […]
readout-label: half-life at 1 μM (min)
Give a bare numeral; the unit min is implied.

Return reported half-life at 1 μM; argument: COCCN(CC1CCCN(Cc2ccccc2)C1)S(=O)(=O)c1ccc2ccccc2c1 (racemic)
54

* * *

measurement-protocol: in vitro
condition: human, Caco-2
readout-label: Papp A→B at 120 min, 100 μM (×10⁻⁶ cm/s)
Give a bare numeral; the unit ×10⁻⁶ cm/s is implied.

Return reported Papp A→B at 120 min, 100 μM; argument: COCCN(CC1CCCN(Cc2ccccc2)C1)S(=O)(=O)c1ccc2ccccc2c1 (racemic)
30

* * *

measurement-protocol: Metabolic stability in cryopreserved hepatocytes
Assay type: in vitro ADME
condition: both sexes, pH 7.3, human hepatocytes, read-out: Hepatocyte clearance (Clint)
Experimental: Cryopreserved hepatocytes (mixed gender and pool of 10 or more) were thawed, washed, and resuspended in Krebs-Heinslet buffer (pH 7.3). […] The reaction was stopped by adding acetonitrile into the incubation mixture. […] Propranolol is relatively stable, whereas flurazepam, naloxone and 7-hydroxy-4-trifluoromethylcoumarin (HFC) are readily metabolized in human hepatocytes. In the HPLC-MS/MS analysis peak areas corresponding to the test compounds were recorded. […]
readout-label: hepatocyte CLint at 1 μM (µL/min/1e6 cells)
Give a bare numeral; the unit µL/min/1e6 cells is implied.

Return reported hepatocyte CLint at 1 μM; argument: COCCN(CC1CCCN(Cc2ccccc2)C1)S(=O)(=O)c1ccc2ccccc2c1 (racemic)
18.2

* * *

measurement-protocol: Plasma protein binding, equilibrium dialysis
Assay type: in vitro ADME
condition: pH 7.4, human plasma, 37° C.
Method: The equilibrium dialysis technique was used to separate the fraction of the bound to human plasma protein. The assay was performed in a 96-well format in a dialysis block constructed from Teflon to minimize the unspecific binding (Banker M. J. et al. J. Pharm. Sci. 2003, 92, 967-974). Plasma from human was used as the default protein containing matrix. […] The recovery determination serves as an indicator of reliability of the calculated protein binding value. […]
readout-label: fraction unbound at 4 h, 10 μM
Lab note: record just the number, no unit beside it.

Return reported fraction unbound at 4 h, 10 μM; argument: COCCN(CC1CCCN(Cc2ccccc2)C1)S(=O)(=O)c1ccc2ccccc2c1 (racemic)
0.04
